Known Anti-pent effect of a selection of compounds
assay: Evaluation for the Anti-pentylenetetrazole effect.; format: functional; set-up: unit not given here
// keep it numeric: no unit symbol after the value

Record excerpt, results attached:
• O=C1CN=C(c2ccccc2Cl)c2cc(Cl)ccc2N1 = 5.85
• C[S+]([O-])c1ccc2c(c1)C(c1ccccc1)=NCC(=O)N2 (stereo not drawn) = 4.08
• CN(C)c1ccc2c(c1)C(c1ccccc1)=NCC(=O)N2 = 3.84
• CCSc1ccc2c(c1)C(c1ccccc1)=NCC(=O)N2 = 3.57

Q: Tell me measured Anti-pent effect for O=C1CN=C(c2ccccc2F)c2cc([N+](=O)[O-])ccc2N1 please.
Result: 6

Q: Provide only the value of recorded Anti-pent effect for Cc1ccccc1C1=NCC(=O)Nc2ccc(Cl)cc21
Result: 4.57

Q: Identify Anti-pent effect associated with the compound N#Cc1ccc2c(c1)C(c1ccccc1)=NCC(=O)N2
Result: 5.3

Q: Give a short answer stating reported Anti-pent effect for CCC(C)CN1C(=O)CN=C(c2ccccc2)c2cc(Cl)ccc21 (stereo not drawn) .
Result: 4.99

Q: Answer with the recorded Anti-pent effect for the compound listed here: N#Cc1ccc2c(c1)C(c1ccccc1F)=NCC(=O)N2
Result: 5.63

Q: Determine its reported Anti-pent effect: CN1C(=O)CN=C(c2ccccc2)c2cc(Cl)ccc21
Result: 5.31

Q: Supply Anti-pent effect value. Item: CN1C(=O)CN=C(c2ccccc2C(F)(F)F)c2cc([N+](=O)[O-])ccc21
Result: 5.71

Q: Output Anti-pent effect of O=C1CN=C(c2ccccc2)c2cc(C(F)(F)F)ccc2N1
Result: 5.48

Q: Please report Anti-pent effect for the following compound: CCCCSc1ccc2c(c1)C(c1ccccc1)=NCC(=O)N2
Result: 3.79

* * *

Reported OD is given for each of the following compounds.
species: Mus musculus; test: Optimal Dose (OD) which cause maximum increase in the life span, after singular injection at log (1/C).; format: functional
No unit in the answer, please; the number alone is enough.

• O=C1C(c2ccccc2)=C(N2CC2)C(=O)C(c2ccccc2)=C1N1CC1 = 3.53
• COCCC1=C(N2CC2)C(=O)C(C)=C(N2CC2)C1=O = 5.12

Q: Please indicate OD recorded for CC1=C(N2CC2)C(=O)C(C(C)COC(N)=O)=C(N2CC2)C1=O (centres undefined)
Result: 5.31

* * *

organism: Mus musculus; assay: Optimal Dose (OD) which cause maximum increase in the life span, after singular injection at log (1/C).; format: functional
ENDPOINT_LABEL: OD
In your answer, state the number alone without any accompanying words.

- CCCC1=C(N2CC2)C(=O)C(C(COC(N)=O)OC)=C(N2CC2)C1=O (stereo not drawn): 4.64
- CCC1=C(N2CC2)C(=O)C(CCOC(N)=O)=C(N2CC2)C1=O: 4.88
- CC1=C(N2CC2)C(=O)C(CCCOC(N)=O)=C(N2CC2)C1=O: 5.48

Q: Tell me its OD given CC(C)C1=C(N2CC2)C(=O)C=C(N2CC2)C1=O as the entry.
Result: 4.59

Q: Tell me OD reported for CCCCCC1=C(N2CC2)C(=O)C(CCCCC)=C(N2CC2)C1=O
Result: 3.62

Q: Write down OD measured for item CCC(OC)C1=C(N2CC2)C(=O)C(C)=C(N2CC2)C1=O (stereo not drawn)
Result: 4.84

Q: Identify measured OD associated with CC1=C(N2CC2)C(=O)C(CCOC(N)=O)=C(N2CC2)C1=O
Result: 5.46

Q: Provide one value: measured OD of CN(C)C(=O)OCCC1=C(N2CC2)C(=O)C(CCOC(=O)N(C)C)=C(N2CC2)C1=O
Result: 4.62

Q: Give the reported OD for this compound. CCCC1=C(N2CC2)C(=O)C(CCC)=C(N2CC2)C1=O
Result: 4.14

Q: Using known records, supply OD for COC(COC(N)=O)C1=C(N2CC2)C(=O)C(C)=C(N2CC2)C1=O (stereo not drawn) [CARBOQUONE]
Result: 5.03

* * *

Readings of Anti-pent effect for the listed compounds
test: Evaluation for the Anti-pentylenetetrazole effect.; format: functional; design: unit not given here
Enter the number alone.

- O=C1CN=C(c2ccccc2)c2cc(Cl)ccc2N1: 4.65
- CN1C(=O)CN=C(c2ccccc2)c2cc(C#N)ccc21: 5.44
- CCN1C(=O)CN=C(c2ccccc2)c2cc(Cl)ccc21: 4.9
- CN(C)CCCN1C(=O)CN=C(c2ccccc2)c2cc(Cl)ccc21: 3.38
- CN(C)CCCN1C(=O)CN=C(c2ccccc2F)c2cc(Cl)ccc21: 4.76

Would you kindly look at the next entry?
Q: Find the measured Anti-pent effect of O=C1CN=C(c2ccccc2)c2cc(Br)ccc2N1 and report it.
Result: 5.2

* * *

species: Mus musculus; assay: Optimal Dose (OD) which cause maximum increase in the life span, after chronic injection at log (1/C).; assay type: functional
Parameter OD: see the listing below.
Keep it simple and answer with nothing but the number.

* CC1=C(N2CC2)C(=O)C(COc2ccccc2)=C(N2CC2)C1=O | 4.71
* COCCC1=C(N2CC2)C(=O)C(C)=C(N2CC2)C1=O | 5.42
* CC1=C(N2CC2)C(=O)C(CCCc2ccccc2)=C(N2CC2)C1=O | 4.21
* CC1=C(N2CC2)C(=O)C(C(C)C)=C(N2CC2)C1=O | 5.21
* O=C1C(CCO)=C(N2CC2)C(=O)C(CCO)=C1N1CC1 | 6.05

As a next step, examine the molecule that follows.
Q: For the molecule CC1=C(N2CC2)C(=O)C(CCOC(N)=O)=C(N2CC2)C1=O , report OD.
Result: 5.75

* * *

species: Mus musculus; experiment: Optimal Dose (OD) which cause maximum increase in the life span, after chronic injection at log (1/C).; type: functional
ENDPOINT_LABEL: OD

- O=C1C=C(N2CC2)C(=O)C(N2CC2)=C1N1CC1: 6.19
- CC1=C(N2CC2)C(=O)C(N2CC2)=C(N2CC2)C1=O: 6.21
- CC(C)C1=C(N2CC2)C(=O)C=C(N2CC2)C1=O: 5.37
- CCOC(COC(N)=O)C1=C(N2CC2)C(=O)C(CC)=C(N2CC2)C1=O (configuration not stated): 5.24
- CC1=C(N2CC2)C(=O)C(CCCC2=C(N3CC3)C(=O)C(C)=C(N3CC3)C2=O)=C(N2CC2)C1=O: 5.39

Now let's try a different one.
Q: State its OD: CC1=C(N2CC2)C(=O)C(C(C)COC(N)=O)=C(N2CC2)C1=O (configuration not stated)
Result: 5.71

* * *

species on record: Mus musculus; assay: Optimal Dose (OD) which cause maximum increase in the life span, after chronic injection at log (1/C).; assay type: functional
Reported OD by item:
Respond numerically, and do not add a unit to the figure.

# count of solved cases: 5
* CCC1=C(N2CC2)C(=O)C(CC)=C(N2CC2)C1=O | 5.09
* CCCC1=C(N2CC2)C(=O)C(C(COC(N)=O)OC)=C(N2CC2)C1=O (centres undefined) | 5.07
* COC(CO)C1=C(N2CC2)C(=O)C(C)=C(N2CC2)C1=O (centres undefined) | 5.75
* CC(=O)OCCC1=C(N2CC2)C(=O)C(C)=C(N2CC2)C1=O | 5.78
* CC1=C(N2CC2)C(=O)C(CCO)=C(N2CC2)C1=O | 5.79

Q: Please indicate OD recorded for CC1=C(N2CC2)C(=O)C(C)=C(N2CC2)C1=O
Result: 5.36

* * *

experiment: Evaluation for the Anti-pentylenetetrazole effect.; type: functional; parameters: unit not given here
ENDPOINT_LABEL: Anti-pent effect
// no unit string in output, number only

Field: example entries. Status: answers known.
- CNC(=O)CN1C(=O)CN=C(c2ccccc2)c2cc(Cl)ccc21: 5.83
- CCN(CC)CCN1C(=O)CN=C(c2ccccc2)c2cc(Cl)ccc21: 5.06
- O=C1CN=C(c2ccccc2Br)c2cc(Cl)ccc2N1: 5.77
- CN1C(=O)CN=C(c2ccccc2)c2cc([N+](=O)[O-])ccc21: 5.62
- CCC(C)CN1C(=O)CN=C(c2ccccc2)c2cc([N+](=O)[O-])ccc21 (stereo unspecified): 4.8

Shift focus to the following entry.
Q: Please report the measured Anti-pent effect for CSc1ccc2c(c1)C(c1ccccc1)=NCC(=O)N2
Result: 4.15

* * *

assay: Evaluation for the Anti-pentylenetetrazole effect.; format: functional; design: unit not given here
molecules and their reported Anti-pent effect

# annotated cases, reported Anti-pent effect shown
- CN1C(=O)CN=C(c2ccccc2Cl)c2cc(Cl)ccc21: 6.03
- CN(C)C(=O)CN1C(=O)CN=C(c2ccccc2)c2cc(Cl)ccc21: 5.35
- O=C1CN=C(c2ccccc2Cl)c2cc([N+](=O)[O-])ccc2N1: 6.3
- CN1C(=O)CN=C(c2ccccc2F)c2cc(Cl)ccc21: 5.88

Q: Give Anti-pent effect for O=C1CN=C(c2ccccc2C(F)(F)F)c2cc(C(F)(F)F)ccc2N1
Result: 4.97

Q: Note Anti-pent effect for the molecule shown: COc1ccccc1C1=NCC(=O)Nc2ccc(Cl)cc21
Result: 4.6

Q: Provide measured Anti-pent effect value, entry: O=C1CN=C(c2ccccc2C(F)(F)F)c2cc([N+](=O)[O-])ccc2N1
Result: 5.7

Q: Write down Anti-pent effect measured for item CN1C(=O)CN=C(c2ccccc2F)c2cc(F)ccc21
Result: 3.33

Q: Identify the reported Anti-pent effect for the following entry. CN1C(=O)CN=C(c2ccccc2F)c2ccccc21
Result: 4.53

Q: Indicate the recorded Anti-pent effect value for this molecule: CN(C)CCN1C(=O)CN=C(c2ccccc2)c2cc(C(F)(F)F)ccc21
Result: 4.76

Q: Return value of Anti-pent effect for input CN(C)CCN1C(=O)CN=C(c2ccccc2)c2cc([N+](=O)[O-])ccc21 , no commentary.
Result: 4.7
